What follows is a collection of IC50 values obtained with SRPK1 (Homo sapiens).
Sequence (Q96SB4 whole entry): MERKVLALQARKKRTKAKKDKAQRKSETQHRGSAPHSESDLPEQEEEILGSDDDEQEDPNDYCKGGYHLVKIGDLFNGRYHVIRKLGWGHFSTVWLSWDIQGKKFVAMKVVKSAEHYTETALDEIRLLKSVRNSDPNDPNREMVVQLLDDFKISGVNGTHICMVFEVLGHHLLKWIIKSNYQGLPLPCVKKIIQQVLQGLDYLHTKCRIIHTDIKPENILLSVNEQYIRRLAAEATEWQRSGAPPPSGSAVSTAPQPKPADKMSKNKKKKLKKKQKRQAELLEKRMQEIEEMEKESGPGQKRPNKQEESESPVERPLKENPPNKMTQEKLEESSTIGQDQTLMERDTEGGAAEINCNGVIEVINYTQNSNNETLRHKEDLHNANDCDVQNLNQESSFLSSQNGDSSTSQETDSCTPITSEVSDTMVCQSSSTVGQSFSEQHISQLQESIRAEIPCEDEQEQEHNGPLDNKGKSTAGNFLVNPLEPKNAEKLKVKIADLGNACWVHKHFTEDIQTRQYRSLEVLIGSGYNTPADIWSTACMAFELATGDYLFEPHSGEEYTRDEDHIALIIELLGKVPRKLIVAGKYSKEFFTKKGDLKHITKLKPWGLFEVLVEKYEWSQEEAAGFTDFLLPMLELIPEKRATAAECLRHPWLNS

Chemical string: O=C(Nc1cc(C(F)(F)F)ccc1N1CCN(Cc2cocn2)CC1)c1ccno1
IC50 / nM: 561
--
Chemical string: Cc1ccc(CN2CCN(c3ccc(C(F)(F)F)cc3NC(=O)c3ccc(C)o3)CC2)o1
IC50 / nM: 10.7
--
Chemical string: O=C(Nc1cc(C(F)(F)F)ccc1N1CCN(Cc2c[nH]c3ccccc23)CC1)c1ccco1
IC50 / nM: 74.9
--
Chemical string: O=C(Nc1cc(C(F)(F)F)ccc1N1CCN(Cc2c[nH]c3ccccc23)CC1)c1ccccn1
IC50 / nM: 31.3
--
Chemical string: O=C(Nc1cc(C(F)(F)F)ccc1N1CCN(Cc2ccoc2)CC1)c1ccco1
IC50 / nM: 21.9
--
Chemical string: O=C(Nc1cc(C(F)(F)F)ccc1N1CCN(Cc2cocn2)CC1)c1ccccn1
IC50 / nM: 21.6
--
Chemical string: O=C(Nc1cc(C(F)(F)F)ccc1N1CCN(Cc2cocn2)CC1)c1ncccn1
IC50 / nM: 344
--
Chemical string: O=C(Nc1cc(C(F)(F)F)ccc1N1CCN(Cc2cscn2)CC1)c1ccc(C2CCOCC2)o1
IC50 / nM: 1.7
--
Chemical string: Cc1ccc(C(=O)Nc2cc(C(F)(F)F)ccc2N2CCN(Cc3ccoc3)CC2)o1
IC50 / nM: 1.8
--
Chemical string: O=C(Nc1cc(C(F)(F)F)ccc1N1CCN(Cc2cc[nH]n2)CC1)c1ccc(C2CCOCC2)o1
IC50 / nM: 3.5
--
Chemical string: Cc1ccc(CN2CCN(c3ccc(C(F)(F)F)cc3NC(=O)c3ccc(C4CCOCC4)o3)CC2)o1
IC50 / nM: 3.7
--
Chemical string: O=C(Nc1cc(C(F)(F)F)ccc1N1CCN(Cc2cocn2)CC1)c1ncco1
IC50 / nM: 1260
--
Chemical string: O=C(Nc1cc(C(F)(F)F)ccc1N1CCN(Cc2ccno2)CC1)c1ccccn1
IC50 / nM: 2.8
--
Chemical string: Cc1ccc(C(=O)Nc2cc(C(F)(F)F)ccc2N2CCN(Cc3ccco3)CC2)o1
IC50 / nM: 17.6
--
Chemical string: O=C(Nc1cc(C(F)(F)F)ccc1N1CCN(Cc2cncs2)CC1)c1ccc(C2CCOCC2)o1
IC50 / nM: 0.5
--
Chemical string: O=C(Nc1cc(C(F)(F)F)ccc1N1CCN(Cc2cocn2)CC1)c1cccc(C2CCOCC2)n1
IC50 / nM: 104
--
Chemical string: O=C(Nc1cc(C(F)(F)F)ccc1N1CCN(Cc2cc[nH]n2)CC1)c1ccccn1
IC50 / nM: 12.7
--
Chemical string: O=C(Nc1cc(C(F)(F)F)ccc1N1CCN(Cc2cc[nH]n2)CC1)c1ccco1
IC50 / nM: 62.4
--
Chemical string: O=C(Nc1cc(C(F)(F)F)ccc1N1CCN(Cc2ccno2)CC1)c1ccco1
IC50 / nM: 317
--
Chemical string: O=C(Nc1cc(C(F)(F)F)ccc1N1CCN(Cc2cncs2)CC1)c1ccco1
IC50 / nM: 39.5
--
Chemical string: O=C(Nc1cc(C(F)(F)F)ccc1N1CCN(Cc2cscn2)CC1)c1ccccn1
IC50 / nM: 6.7
--
Chemical string: Cc1ccc(C(=O)Nc2cc(C(F)(F)F)ccc2N2CCN(Cc3cn(Cc4ccccc4)nn3)CC2)o1
IC50 / nM: 337
--
Chemical string: O=C(Nc1cc(C(F)(F)F)ccc1N1CCN(Cc2cocn2)CC1)c1ccncn1
IC50 / nM: 134
--
Chemical string: O=C(Nc1cc(C(F)(F)F)ccc1N1CCN(Cc2cocn2)CC1)c1ccc(C2CCOCC2)cn1
IC50 / nM: 974
--
Chemical string: O=C(Nc1cc(C(F)(F)F)ccc1N1CCN(Cc2ccno2)CC1)c1ccc(C2CCOCC2)o1
IC50 / nM: 5.5
--
Chemical string: Cc1nnc(CN2CCN(c3ccc(C(F)(F)F)cc3NC(=O)c3ccco3)CC2)o1
IC50 / nM: 117
--
Chemical string: O=C(Nc1cc(C(F)(F)F)ccc1N1CCN(Cc2cocn2)CC1)c1cc2ccccc2o1
IC50 / nM: 21
--
Chemical string: Cc1ccc(CN2CCN(c3ccc(C(F)(F)F)cc3NC(=O)c3ccco3)CC2)o1
IC50 / nM: 32.6
--
Chemical string: O=C(Nc1cc(C(F)(F)F)ccc1N1CCN(Cc2cocn2)CC1)c1nc2ccccc2o1
IC50 / nM: 1840
--
Chemical string: Cn1ccc(CN2CCN(c3ccc(C(F)(F)F)cc3NC(=O)c3ccccn3)CC2)n1
IC50 / nM: 27
--
Chemical string: O=C(Nc1cc(C(F)(F)F)ccc1N1CCN(Cc2cocn2)CC1)c1ccccc1
IC50 / nM: 718
--
Chemical string: O=C(Nc1cc(C(F)(F)F)ccc1N1CCN(Cc2ccoc2)CC1)c1ccc(C2CCOCC2)o1
IC50 / nM: 0.7
--
Chemical string: O=C(Nc1cc(C(F)(F)F)ccc1N1CCN(Cc2cocn2)CC1)c1cnccn1
IC50 / nM: 162
